Below, each of the compounds is paired with its reported growth value.
Tested on: MALME-3M melanoma
method-summary: NCI-60 one-dose screen, 48 h (100 = growth as untreated, 0 = no growth, -100 = all killed)
condition-notes: 10 µM unless noted
About 83,000 compounds went through this panel and 20% of them were active in at least one assay; those are over-represented in the sample as a whole.
Numbers only here, please. The scale is %.

Here's what some known entries look like.
# compound, quantity-name, result
records = [
    ("COc1ccc(-c2cc(-c3ccc(Cl)cc3)c(C#N)c(=O)n2CCCCC(=O)Nc2ccccc2N)cc1", "growth", 59.3),
    ("O=C(NNC(=O)c1ccc(-n2cc(-c3ccccc3)nn2)cc1)Nc1ccccc1", "growth", 113),
    ("Cc1ccc(/C=C2\\CN(C(=O)OC(C)(C)C)C/C(=C\\c3ccc(C)cc3)C2=O)cc1", "growth", 83.5),
]

In: Name the recorded growth of CN1C(=O)N(C)C2Nn3c(s/c(=C\c4ccc(C(F)(F)F)cc4)c3=O)=NC21 (centres undefined) , assay system MALME-3M melanoma.
Out: 107

In: Fetch value of growth on MALME-3M melanoma for CC12CCC3c4ccccc4CCC3(CO1)C2 (centres undefined) .
Out: 95.1

In: Name the recorded growth of `COc1cnc2c(c1)C(=O)c1c-2n(CCCNCCO)c(=O)c2ccncc12` , assay system MALME-3M melanoma.
Out: -30.4

In: Supply growth measured with MALME-3M melanoma for `COc1ccc(C(=O)Nc2ncc(Cc3cccc(Cl)c3)s2)cc1OC` .
Out: 47.6

In: Look up and report growth, with MALME-3M melanoma as system, for `CCCCN[C@H]1CC[C@@]2(C)[C@@H](CC[C@@]3(C)[C@H]2[C@H](O)C[C@H]2/C(=C(\CCC=C(C)C)C(=O)OC)[C@@H](OC(C)=O)C[C@@]23C)[C@@H]1C`
Out: 96.9

In: Tell me its growth on MALME-3M melanoma: `COc1ccc(/C(C)=C(/c2ccc(OCCCN(C)C)cc2)c2ccc(OC(=O)Cc3ccccc3)cc2)cc1`
Out: 95
